assay.target: EGFR L858R/T790M/C797S (Homo sapiens, UniProt P00533, C797S/L858R/T790M)
Sequence (P00533 25-1210 T790M/C797S/L858R): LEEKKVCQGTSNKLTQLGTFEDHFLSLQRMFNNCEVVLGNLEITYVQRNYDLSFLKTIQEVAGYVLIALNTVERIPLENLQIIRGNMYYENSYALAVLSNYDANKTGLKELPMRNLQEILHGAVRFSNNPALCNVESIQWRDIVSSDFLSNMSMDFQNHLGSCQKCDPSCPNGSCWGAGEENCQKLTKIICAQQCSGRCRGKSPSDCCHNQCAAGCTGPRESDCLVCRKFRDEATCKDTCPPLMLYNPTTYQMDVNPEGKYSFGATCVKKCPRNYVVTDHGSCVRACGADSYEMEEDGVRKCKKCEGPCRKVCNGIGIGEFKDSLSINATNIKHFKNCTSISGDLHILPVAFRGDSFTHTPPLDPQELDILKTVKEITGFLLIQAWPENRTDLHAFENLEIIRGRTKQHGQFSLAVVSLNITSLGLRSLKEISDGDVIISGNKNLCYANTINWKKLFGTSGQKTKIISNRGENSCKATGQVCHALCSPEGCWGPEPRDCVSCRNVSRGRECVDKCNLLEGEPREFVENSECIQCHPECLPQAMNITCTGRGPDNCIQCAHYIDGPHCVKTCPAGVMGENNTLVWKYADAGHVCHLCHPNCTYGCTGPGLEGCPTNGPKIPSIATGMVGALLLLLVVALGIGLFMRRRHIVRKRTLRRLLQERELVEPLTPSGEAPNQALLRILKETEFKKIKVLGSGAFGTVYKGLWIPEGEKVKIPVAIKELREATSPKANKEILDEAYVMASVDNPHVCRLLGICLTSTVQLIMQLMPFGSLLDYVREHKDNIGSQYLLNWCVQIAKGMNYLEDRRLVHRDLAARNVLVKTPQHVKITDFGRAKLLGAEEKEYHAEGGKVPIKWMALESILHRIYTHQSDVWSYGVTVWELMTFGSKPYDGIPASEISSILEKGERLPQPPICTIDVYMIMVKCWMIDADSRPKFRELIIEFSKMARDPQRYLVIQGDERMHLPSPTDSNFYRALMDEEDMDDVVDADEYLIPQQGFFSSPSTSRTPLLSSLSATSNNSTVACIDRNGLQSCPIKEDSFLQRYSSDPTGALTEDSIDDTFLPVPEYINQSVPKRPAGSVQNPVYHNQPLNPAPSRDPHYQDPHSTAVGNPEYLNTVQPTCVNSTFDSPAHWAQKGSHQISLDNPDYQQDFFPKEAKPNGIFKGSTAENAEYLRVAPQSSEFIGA
assay.method.text: Biochemical EGFR kinase assay (Lance Ultra TR-FRET), triple mutant L858R/T790M/C797S
condition.notes: IC50 L858R/T790M/C797S (nM) 100 μM ATP, 100 μM ATP
// reported IC50 for each item listed
Could you write the number and then its unit?

1. O=S(=O)(C1CC1)n1cc(-c2nccc(Nc3cc(N[C@H]4CCC[C@H](CO)C4)c(-c4ccn(C(F)F)n4)cn3)n2)cn1 [Example 202] :: 1.4 nM

Prompt: Look at this molecule and give its reported IC50. Cn1ccc(-c2cnc(Nc3ccnc(-c4cnn(S(=O)(=O)C5CC5)c4)n3)cc2NC2CCCC(NCCF)C2)n1 (stereo not drawn) [Example 225]
Completion: 0.6 nM

Prompt: Here is the next molecule: O=S(=O)(C1CC1)n1cc(-c2nccc(Nc3cc(N[C@H]4CC[C@](O)(C(F)F)CC4)c(-c4ccn(C(F)F)n4)cn3)n2)cn1 [Example 200]
Completion: 2.1 nM

====

assay.target: EGFR del19/T790M/C797S (Homo sapiens, UniProt P00533, C797S/DEL746-750/T790M)
Sequence (P00533 with tags, fused parts or gaps DEL746-750/T790M/C797S): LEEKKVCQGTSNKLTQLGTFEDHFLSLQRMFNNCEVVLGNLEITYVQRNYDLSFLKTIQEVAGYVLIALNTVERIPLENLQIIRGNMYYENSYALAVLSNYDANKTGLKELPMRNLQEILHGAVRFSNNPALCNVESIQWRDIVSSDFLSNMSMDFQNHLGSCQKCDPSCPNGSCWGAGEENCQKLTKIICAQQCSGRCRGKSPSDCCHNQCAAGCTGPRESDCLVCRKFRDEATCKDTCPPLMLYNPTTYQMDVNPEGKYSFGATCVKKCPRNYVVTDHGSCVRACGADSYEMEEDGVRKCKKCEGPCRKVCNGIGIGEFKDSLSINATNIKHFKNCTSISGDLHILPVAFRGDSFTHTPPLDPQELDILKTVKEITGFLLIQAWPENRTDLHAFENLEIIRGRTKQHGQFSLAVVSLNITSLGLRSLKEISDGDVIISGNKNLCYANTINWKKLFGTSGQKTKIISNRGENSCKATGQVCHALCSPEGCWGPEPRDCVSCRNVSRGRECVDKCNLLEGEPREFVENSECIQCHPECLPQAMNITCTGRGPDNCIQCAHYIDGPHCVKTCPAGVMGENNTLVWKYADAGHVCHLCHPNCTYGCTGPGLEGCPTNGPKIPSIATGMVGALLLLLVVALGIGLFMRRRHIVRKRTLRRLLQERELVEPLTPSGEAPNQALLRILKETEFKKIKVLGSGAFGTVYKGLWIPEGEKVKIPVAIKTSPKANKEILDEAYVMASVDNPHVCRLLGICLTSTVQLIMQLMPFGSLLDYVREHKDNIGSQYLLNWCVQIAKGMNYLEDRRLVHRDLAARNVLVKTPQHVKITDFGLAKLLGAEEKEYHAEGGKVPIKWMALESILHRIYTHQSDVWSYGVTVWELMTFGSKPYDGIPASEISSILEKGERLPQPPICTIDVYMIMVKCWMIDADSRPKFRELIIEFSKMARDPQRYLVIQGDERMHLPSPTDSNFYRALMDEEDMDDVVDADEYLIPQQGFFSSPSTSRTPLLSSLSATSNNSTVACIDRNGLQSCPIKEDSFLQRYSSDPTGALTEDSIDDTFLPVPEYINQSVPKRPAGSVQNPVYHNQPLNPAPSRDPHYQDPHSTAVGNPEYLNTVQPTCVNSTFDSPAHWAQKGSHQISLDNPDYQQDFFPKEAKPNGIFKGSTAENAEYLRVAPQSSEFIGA
assay.method.text: Biochemical EGFR kinase assay (Lance Ultra TR-FRET), triple mutant del19/T790M/C797S
condition.notes: Km ATP; read-out: IC50 del19/T790M/C797S (nM) Km ATP
Definition: the class of an entry is the range in Low (below 0.4 nM), Mid (0.4 nM to below 1 nM), High (1 nM or more) that contains its IC50.

Prompt: For the record O=S(=O)(C1CC1)n1cc(-c2nccc(Nc3cc(N[C@H]4CC[C@@H](CO)CC4)c(-c4ccn(C(F)F)n4)cn3)n2)cn1 [Example 18] , report the class its IC50 corresponds to.
Completion: Low

Prompt: Same lookup for C[C@]1(O)CC[C@@H](Nc2cc(Nc3ccnc(-c4cnn(S(=O)(=O)C5CC5)c4)n3)ncc2-n2ccc(C(F)(F)F)n2)CC1 [Example 167] , please.
Completion: Mid

Prompt: Lookup COc1cc(-c2nccc(Nc3cc(N[C@H]4CC[C@@](C)(O)CC4)c(-c4ccn(C(F)F)n4)cn3)n2)ccn1 [Example 169]
Completion: High

====

Reported log10 of IC50 values for the following compounds.
assay.target: EGFR L858R/C797S (Homo sapiens, UniProt P00533, C797S/L858R)
Sequence (P00533 25-1210 C797S/L858R): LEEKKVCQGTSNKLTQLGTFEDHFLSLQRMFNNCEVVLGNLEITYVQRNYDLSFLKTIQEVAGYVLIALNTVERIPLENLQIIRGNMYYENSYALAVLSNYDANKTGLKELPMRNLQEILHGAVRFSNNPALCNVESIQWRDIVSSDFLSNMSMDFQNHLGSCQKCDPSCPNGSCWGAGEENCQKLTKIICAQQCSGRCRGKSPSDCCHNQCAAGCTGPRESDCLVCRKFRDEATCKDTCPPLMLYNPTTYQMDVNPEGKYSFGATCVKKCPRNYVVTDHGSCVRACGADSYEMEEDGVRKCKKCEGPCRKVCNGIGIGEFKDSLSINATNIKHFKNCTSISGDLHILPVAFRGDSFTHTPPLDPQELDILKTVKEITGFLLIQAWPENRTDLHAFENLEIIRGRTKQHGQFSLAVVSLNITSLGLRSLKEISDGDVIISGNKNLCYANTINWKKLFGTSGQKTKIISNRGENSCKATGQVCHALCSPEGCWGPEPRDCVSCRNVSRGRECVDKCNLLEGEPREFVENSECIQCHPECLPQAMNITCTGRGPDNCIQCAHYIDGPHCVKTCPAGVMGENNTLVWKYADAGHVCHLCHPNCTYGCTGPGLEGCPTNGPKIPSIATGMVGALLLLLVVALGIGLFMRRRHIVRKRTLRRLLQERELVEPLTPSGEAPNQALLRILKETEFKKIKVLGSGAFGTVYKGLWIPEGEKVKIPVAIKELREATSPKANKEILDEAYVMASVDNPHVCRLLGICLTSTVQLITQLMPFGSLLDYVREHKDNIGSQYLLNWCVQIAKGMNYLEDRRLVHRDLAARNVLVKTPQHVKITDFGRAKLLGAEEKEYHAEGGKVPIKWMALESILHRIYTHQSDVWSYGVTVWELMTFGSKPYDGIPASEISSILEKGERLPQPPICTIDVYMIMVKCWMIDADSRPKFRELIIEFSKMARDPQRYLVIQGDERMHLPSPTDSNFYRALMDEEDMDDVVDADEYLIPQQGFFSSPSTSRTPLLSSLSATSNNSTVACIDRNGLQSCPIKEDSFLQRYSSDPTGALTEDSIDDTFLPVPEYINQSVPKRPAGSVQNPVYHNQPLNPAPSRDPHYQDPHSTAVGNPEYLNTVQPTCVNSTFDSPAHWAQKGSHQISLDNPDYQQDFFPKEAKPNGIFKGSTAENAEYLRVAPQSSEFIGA
assay.method.text: Biochemical EGFR kinase assay (Lance Ultra TR-FRET), double mutant L858R/C797S
condition.notes: Km ATP; read-out: IC50 L858R/C797S (nM) Km ATP
Units before log transform: nM; reported quantity: IC50; transform: log10.

Worked cases, answers included:
1. O=S(=O)(C1CC1)n1cc(-c2nccc(Nc3cc(NC4CCCC4O)c(-c4ccn(C(F)F)n4)cn3)n2)cn1 (centres unmarked) :: 1.42
2. Cn1nc(-c2cnc(Nc3ccnc(-c4cnn(S(=O)(=O)C5CC5)c4)n3)cc2N[C@H]2CC[C@@H](C(C)(C)O)CC2)cc1C(F)(F)F :: 1.27

Prompt: Entry CN(C)CC[C@H]1CC[C@@H](Nc2cc(Nc3ccnc(-c4cnn(S(=O)(=O)C5CC5)c4)n3)ncc2-c2ccn(CC(F)F)n2)CC1 has what log10 of IC50?
Completion: -1.00

Prompt: Query O=S(=O)(C1CC1)n1cc(-c2nccc(Nc3cc(N[C@H]4CC[C@](O)(C(F)F)CC4)c(-c4ccn(C(F)F)n4)cn3)n2)cn1 next
Completion: 1.19

Prompt: Ok, now C[C@]1(O)CC[C@@H](Nc2cc(Nc3ccnc(-c4cccnc4F)n3)ncc2-c2ccn(C(F)F)n2)CC1
Completion: 1.94

Prompt: Please answer likewise for CCC(C)Nc1cc(Nc2ccnc(-c3cnn(S(=O)(=O)C4CC4)c3)n2)ncc1-c1ccn(CC(F)F)n1 (centres unmarked)
Completion: 0.64

Prompt: For O=S(=O)(C1CC1)n1cc(-c2nccc(Nc3cc(NC[C@H]4CC[C@H](O)CC4)c(-c4ccn(C(F)F)n4)cn3)n2)cn1 then?
Completion: 0.11

Prompt: # repeat for O=S(=O)(C1CC1)n1cc(-c2nccc(Nc3cc(N[C@H]4CC[C@@H](F)CC4)c(-c4ccn(CC(F)(F)F)n4)cn3)n2)cn1
Completion: 1.08

Prompt: Another compound to check: Cn1ccc(-c2cnc(Nc3ccnc(-c4cnn(S(=O)(=O)C5CC5)c4)n3)cc2N[C@H]2CC[C@@H](N(C)C)CC2)n1
Completion: -0.30

Prompt: Also, C[C@]1(O)CC[C@@H](Nc2cc(Nc3ccnc(-c4ccc(F)nc4F)n3)ncc2-c2ccn(C(F)F)n2)CC1 please.
Completion: 2.91

Prompt: Now try CN(C)C(=O)[C@H]1CC[C@@H](Nc2cc(Nc3ccnc(-c4cnn(S(=O)(=O)C5CC5)c4)n3)ncc2-c2ccn(C(F)F)n2)CC1 .
Completion: -0.15

Prompt: Request: O=S(=O)(C1CC1)n1cc(-c2nccc(Nc3cc(NC4CC5CC(O)C4C5)c(-c4ccn(C(F)F)n4)cn3)n2)cn1 (centres unmarked)
Completion: 1.44

Prompt: Entry O=S(=O)(C1CC1)n1cc(-c2nccc(Nc3cc(N[C@H]4CC[C@@H](CO)CC4)c(-c4ccn(C5COC5)n4)cn3)n2)cn1 please
Completion: -1.00

Prompt: Another compound to look at: C[C@]1(O)CC[C@@H](Nc2cc(Nc3ccnc(-c4cnn(S(=O)(=O)C5CC5)c4)n3)ncc2-n2ccc(C(F)F)n2)CC1
Completion: 0.97

Prompt: Repeat with O=S(=O)(C1CC1)n1cc(-c2nccc(Nc3cc(OC4CCC(O)C4)c(-c4ccn(C(F)F)n4)cn3)n2)cn1 (centres unmarked)
Completion: 1.37

Prompt: Next up: Cn1nc(-c2cnc(Nc3nc(-c4cnn(S(=O)(=O)C5CC5)c4)ncc3F)cc2N[C@H]2CC[C@@](C)(O)CC2)cc1C(F)(F)F
Completion: 1.29

Prompt: Try this compound next: COc1cc(-c2nccc(Nc3cc(N[C@H]4CC[C@@](C)(O)CC4)c(-c4ccn(C(F)F)n4)cn3)n2)ccn1
Completion: 1.64

Prompt: Please do the same for Cn1nc(-c2cnc(Nc3ccnc(-c4cnn(S(=O)(=O)C5CC5)c4)n3)cc2N[C@H]2CCC[C@H](CO)C2)cc1C(F)(F)F as well.
Completion: 0.43

Prompt: Similarly, Cn1ccc(-c2cnc(Nc3ccnc(-c4cnn(S(=O)(=O)C5CC5)c4)n3)cc2NC2CCC(F)(CO)CC2)n1 (centres unmarked) ?
Completion: 0.52

Prompt: # repeat for O=S(=O)(C1CC1)n1cc(-c2nccc(Nc3cc(NC4CCC5(CC4)CNC5)c(-c4ccn(C(F)F)n4)cn3)n2)cn1
Completion: -0.30

Prompt: Here is the next compound: CN(C)[C@H]1CC[C@H](CNc2cc(Nc3ccnc(-c4cnn(S(=O)(=O)C5CC5)c4)n3)ncc2-c2ccn(C(F)F)n2)CC1
Completion: -0.52

Prompt: Do the same for O=S(=O)(C1CC1)n1cc(-c2nccc(Nc3cc(N[C@H]4CC[C@](O)(CO)CC4)c(-c4cc5n(n4)CCCC5)cn3)n2)cn1 please
Completion: -0.40

Prompt: Follow-up item: FC(F)Cn1cc(-c2nccc(Nc3cc(N[C@H]4CC[C@@H](F)CC4)c(-c4ccn(C(F)F)n4)cn3)n2)cn1
Completion: 1.78

====

assay.target: EGFR wildtype (WT) (Homo sapiens)
Sequence (P00533 25-1210): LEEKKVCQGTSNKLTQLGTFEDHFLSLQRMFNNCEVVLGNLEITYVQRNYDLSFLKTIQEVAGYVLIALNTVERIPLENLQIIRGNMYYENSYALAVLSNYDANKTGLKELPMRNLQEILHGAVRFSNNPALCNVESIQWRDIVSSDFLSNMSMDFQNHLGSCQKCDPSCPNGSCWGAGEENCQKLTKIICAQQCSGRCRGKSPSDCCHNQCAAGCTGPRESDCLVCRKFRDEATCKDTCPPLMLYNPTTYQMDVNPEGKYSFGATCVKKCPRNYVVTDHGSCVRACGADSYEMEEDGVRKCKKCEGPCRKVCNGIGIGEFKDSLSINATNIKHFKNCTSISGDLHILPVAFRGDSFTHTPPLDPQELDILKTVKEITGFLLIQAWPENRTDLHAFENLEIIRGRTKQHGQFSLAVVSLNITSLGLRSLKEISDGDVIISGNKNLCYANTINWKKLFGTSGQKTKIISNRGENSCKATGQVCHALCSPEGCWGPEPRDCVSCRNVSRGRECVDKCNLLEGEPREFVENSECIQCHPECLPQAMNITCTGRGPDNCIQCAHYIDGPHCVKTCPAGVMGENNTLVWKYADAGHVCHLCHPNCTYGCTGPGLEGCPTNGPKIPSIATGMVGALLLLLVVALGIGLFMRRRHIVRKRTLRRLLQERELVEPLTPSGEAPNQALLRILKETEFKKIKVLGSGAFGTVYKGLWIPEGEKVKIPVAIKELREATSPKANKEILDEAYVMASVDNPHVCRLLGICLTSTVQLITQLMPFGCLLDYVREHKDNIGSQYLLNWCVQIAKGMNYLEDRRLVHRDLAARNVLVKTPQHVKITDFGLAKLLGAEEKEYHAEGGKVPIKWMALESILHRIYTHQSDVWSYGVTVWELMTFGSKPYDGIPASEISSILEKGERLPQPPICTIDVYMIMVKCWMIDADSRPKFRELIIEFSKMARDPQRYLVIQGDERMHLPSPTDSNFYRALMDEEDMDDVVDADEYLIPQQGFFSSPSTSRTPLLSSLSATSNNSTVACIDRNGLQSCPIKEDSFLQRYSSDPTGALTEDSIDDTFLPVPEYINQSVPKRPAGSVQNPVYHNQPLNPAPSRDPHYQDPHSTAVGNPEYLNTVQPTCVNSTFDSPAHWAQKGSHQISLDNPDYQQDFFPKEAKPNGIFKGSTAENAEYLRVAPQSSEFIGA
assay.method.text: Biochemical EGFR kinase assay (Lance Ultra TR-FRET), wildtype
condition.notes: IC50 WT (nM) 100 μM ATP, 100 μM ATP
Description: Biochemical EGFR kinase assays were conducted using Lance Ultra time-resolved fluorescence resonance energy transfer (TR-FRET) technology from Perkin-Elmer. […] Each kinase reactions were incubated at room temperature for 1 hour and then stopped by the addition of 4 μL of stop solution (10 mM EDTA). […] After 60 minutes incubation at room temperature the LANCE signal was measured on an EnVision Multilabel Reader (Perkin-Elmer). […]
Listed below: IC50 values for each entry.

Prompt: Please state recorded IC50 (tested on EGFR wildtype (WT) (Homo sapiens)) of O=S(=O)(C1CC1)n1cc(-c2nccc(Nc3cc(N[C@H]4CC[C@](O)(C(F)F)CC4)c(-c4ccn(C(F)F)n4)cn3)n2)cn1
Completion: > 10000 nM

Prompt: Also check CN(C)CC1(C)CCC(Nc2cc(Nc3ccnc(-c4cnn(S(=O)(=O)C5CC5)c4)n3)ncc2-c2ccn(C(F)F)n2)CC1 (centres unmarked)
Completion: 5120 nM

Prompt: Here is the next compound: Cn1nc(-c2cnc(Nc3ccnc(-c4cnn(S(=O)(=O)C5CC5)c4)n3)cc2N[C@H]2CC[C@@H](NCCF)CC2)cc1C(F)(F)F
Completion: > 10000 nM

Prompt: Next compound up: CC1(O)CCC(Oc2cc(Nc3ccnc(-c4cnn(S(=O)(=O)C5CC5)c4)n3)ncc2-c2ccn(C(F)F)n2)CC1 (centres unmarked)
Completion: > 10000 nM

Prompt: And then COCCn1cc(-c2nccc(Nc3cc(N[C@H]4CC[C@@](C)(O)CC4)c(-c4ccn(C(F)F)n4)cn3)n2)cn1 , what is it?
Completion: > 10000 nM
